# TARGET OR TEST SYSTEM: OR51B6 peptide/HLA-A*02:01 complex (recombinant) (human)
# TEST DETAILS: SPR

{"BINDER": "AS170036 VL1VH1-VHS57Q (scFv) scFv: QSALTQPRSVSGSPGQSVTISCAGTSSDVGSENYVSWYQQHPGKAPKLMIYQVNKRASGVPDRFSGSKSGNTASLTISGLQAEDEADYYCASYRSSDHNIVFGGGTKLTVLGGGGSGGGGSGGGGSEVQLVESGGGLVQPGGSLRLSCAASGFTFSSYAMSWVRQAPGKGLEWVSTINSGTGQPYYADSVKGRFTISRDNSKNTLYLQMNSLRAEDTAVYYCAKNFFDGSWFLGPPAMDYWGQGTLVTVSSHHHHHH", "binding result": "no binding"}
{"BINDER": "AS170036 VL1VH1-VHG108M (scFv) scFv: QSALTQPRSVSGSPGQSVTISCAGTSSDVGSENYVSWYQQHPGKAPKLMIYQVNKRASGVPDRFSGSKSGNTASLTISGLQAEDEADYYCASYRSSDHNIVFGGGTKLTVLGGGGSGGGGSGGGGSEVQLVESGGGLVQPGGSLRLSCAASGFTFSSYAMSWVRQAPGKGLEWVSTINSGTGSPYYADSVKGRFTISRDNSKNTLYLQMNSLRAEDTAVYYCAKNFFDGSWFLMPPAMDYWGQGTLVTVSSHHHHHH", "binding result": "no binding"}
